These measurements were taken from paper PMC5540273.

Please go through the items and note down their %Inh.
Test system: HPK1;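 also: KINOMEscan kinase panel screen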
test-settings: concentration: 1 μM, replicates: in singlicate; n = 1
One number for each entry, in %.

Previously resolved entries follow.
compound | unit-of-measurement | %Inh
Nc1n[nH]c2ncc(-c3ccccc3)cc12 [SB-517081] | % | 44
COc1cccc(-n2cnc3c(N)ncnc32)c1 [SKF-97416] | % | 0
COc1cccc(C2=C(N(C)c3ccccc3)C(=O)NC2=O)c1 [SB-334865] | % | 53
Cn1c(=O)c(F)c(Nc2ccc(I)cc2F)c2c(=O)n(OC[C@H](O)CO)cnc21 | % | 0
Cc1cc(Nc2nc(-c3cccc(C)n3)nc3ccccc23)ccn1 [GW872411] | % | 0

Dear colleague, could you please provide %Inh for the compounds listed below?
1. Cl.c1ccc(Cn2cnc3cc(Nc4ncnc5ccccc45)ccc32)cc1 [GW272142]
2. O=C(Nc1n[nH]c2nc(-c3ccccc3)c(Br)cc12)C1CC1 [SB-708998]
3. Nc1n[nH]c2nnc(-c3ccccc3)c(-c3ccccc3)c12 [GW554060]
4. O=C(Nc1ccc2c(c1)OCO2)NC1CCN(c2ccnc(NCc3ccc(F)cc3)n2)CC1 [GSK1379859]

**Result**
1. 36
2. 20
3. 27
4. 29

Give %Inh for each of the items listed below.
1. FC(F)(F)c1ccc(-c2ncn(CCCN3CCOCC3)c2-c2ccncc2)cc1 [SB-217780]
2. CN1C(=O)C(Nc2ccccc2)=C(c2ccccc2)C1=O [SB-300079]
3. CCC(=O)c1c(-c2ccccc2)c2cc(Cl)ccc2c(=O)n1Cc1ccc(C(=O)O)cc1
4. CCCNC(=O)Nc1ccc(Oc2ncnc3ccn(C)c23)cc1
5. COc1ccc(-c2cc3c(C)nc(N)nc3n([C@H]3CC[C@H](O)CC3)c2=O)cn1
6. Nc1nc(-c2ccccc2F)c(-c2ccnc3ccccc23)s1 [GW560459]
7. Cc1cccc(-c2nc(Nc3ccc4c(cnn4C)c3)c3ccccc3n2)n1 [GW876731]
8. Cc1cccc(-c2cc(-c3c[nH]nc3-c3ccccn3)ccn2)c1 [GW679395]

**Result**
1: 1; 2: 0; 3: 0; 4: 0; 5: 0; 6: 7; 7: 0; 8: 32

Consider the following items and state reported %Inh for each.
1. Cc1c(Cn2c(C)nn3c(=O)cc(N4CCO[C@H](C)C4)nc23)cccc1C(F)(F)F [GSK2373690]
2. COc1cc2ncn(-c3cc(OCCCc4ccccc4)c(C(N)=O)s3)c2cc1OC [GSK205189]
3. O=C(NCCNc1ccnc(Nc2ccc(F)cc2)n1)Nc1ccc2c(c1)OCO2 [GSK1379882]
4. OCCCNc1nccc(-c2c(-c3cccc(C(F)(F)F)c3)nn3cc(C(F)(F)F)ccc23)n1 [GW630813]
5. CCn1c(-c2nonc2N)nc2ccccc21 [SB-693162/GW549034]
6. COc1cc(OC)cc(-c2cc3cnc(N)nc3nc2NC(=O)NC(C)(C)C)c1
7. COc1ccc(-c2cc3c(C)nc(N)nc3n([C@H]3CC[C@H](OCCO)CC3)c2=O)cn1
8. O=C(NCc1cccs1)c1cc(C(=O)c2c(Cl)cccc2Cl)c[nH]1 [GW823670]

**Result**
1: 24; 2: 28; 3: 37; 4: 27; 5: 7; 6: 0; 7: 0; 8: 37

Provide each entry's %Inh from the list below.
1. Cc1ccccc1COc1cc(-n2cnc3cc(Cl)ccc32)sc1C(N)=O [GW813349]
2. Nc1ncnc2c1ncn2-c1cccc(F)c1 [SKF-97560]

**Result**
1: 62; 2: 23

// input: 4 compounds below; output: %Inh for each
1. COC(=O)c1c(-c2ccccc2)c2cc(C)ccc2c(=O)n1Cc1ccccc1
2. Fc1cccc(CSc2nnc(-c3ccc4c(c3)CCO4)o2)c1
3. Cl.NS(=O)(=O)c1cccc(Nc2cc(-c3ccc(F)cc3)n[nH]2)c1 [GW824645]
4. Cc1ccc(-c2ccc3c(ccc4sc5c(c43)NC[C@@H](C)N=C5N(C)C)n2)cn1

**Result**
1: 0; 2: 0; 3: 0; 4: 8

Take each entry in turn and give its %Inh.
1. COc1ccc(CNC(=O)NC2CCN(c3ccnc(Nc4ccc(F)cc4)n3)C2)cc1 (stereo not drawn) [GSK1379706]
2. COc1cc2ncn(-c3cc(OCc4ccc(S(C)(=O)=O)cc4)c(C(N)=O)s3)c2cc1OC [GW869979]

**Result**
[49, 10]
